assay: growth suppression of PTEN-deleted HCT116, pilot screen, cell-based, HCT116 clonal line, CellTiter-Glo (AID 824); conditions: 60 h, at 10 µM, stronger effect = lower value;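 also: 0% = 20 µM Hyamine control and 100% = vehicle cell control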
Inconclusive results are not listed.
parameter: viability (%)
Return type: number; implicit unit %.

Asked: Sample C/C=C/Cn1c(N(C)Cc2ccccc2)nc2c1c(=O)[nH]c(=O)n2C — what was its viability?
Given back: 87.6

Asked: State the recorded viability for this entry: O=C(COc1ccccc1F)c1ccc(O)cc1O
Given back: 106

Asked: # get_value(readout='viability', item= COc1cccc(-n2c(Cc3cc(=O)[nH]c(=O)[nH]3)nnc2SCC(=O)NC2CCCC2)c1 )
Given back: 101

Asked: So what's the measured viability for this one? Cn1c(-n2c(CCN3C(=O)c4ccccc4C3=O)nc3ccccc3c2=O)nc2ccccc21
Given back: 81.2

Asked: So what's the measured viability for this one? Cc1ccc(-c2nn(CC(=O)O)c(=O)c3ccccc23)cc1
Given back: 96.2

Asked: // query viability value for entry CCOC(=O)c1ccc2c(c1)NC(=O)C(N1CCN(c3ccc(OC)cc3)CC1)S2 (stereo not drawn)
Given back: 51.8

Asked: Tell me the measured viability of CCOCCCn1cnc2c([nH]c3cc(OC)ccc32)c1=O , please.
Given back: 96.9

Asked: Tell me the measured viability of CC(Oc1ccc(Cl)cc1Cl)C(=O)NCCN1CCOCC1 (stereo not drawn) , please.
Given back: 97.5

Asked: Please look up its viability: CC(=O)COC(=O)c1cccc(N2C(=O)C3C4C=CC(C4)C3C2=O)c1 (stereo not drawn)
Given back: 93.5

Asked: Query (compound): O=C1C(O)CC2c3ccccc3CC3(CCCC3)N12 (stereo not drawn) ; field requested: viability
Given back: 90.4

Asked: Could you share which viability value was measured for O=C(COc1ccc(S(=O)(=O)NC2CCCCC2)cc1)Nc1ccc2c(c1)OCCO2 ?
Given back: 70.8

Asked: What does the record list as viability for O=C(C1=C(O)C(=O)N(CCN2CCOCC2)C1c1ccncc1)c1ccco1 (stereo not drawn) ?
Given back: 93.2

Asked: # input compound: CC(=O)c1c(NC(=O)C(C)C)nc(C)nc1-c1ccccc1 ; wanted: its viability
Given back: 100

Asked: Given the entry COc1ccc(S(=O)(=O)N2CCC(C(=O)N3CCc4ccccc4C3)CC2)cc1OC , report its measured viability.
Given back: 87.6

Asked: For the compound shown here, COC(=O)C1C(=O)c2c([nH]c(C(=O)OC3CCCC3C)c2C)CC1C (stereo not drawn) , give the reported viability.
Given back: 72.7

Asked: What value of viability has been recorded for this entry: CCOC(=O)c1oc2cc(O)c(CC)cc2c(=O)c1-c1ccc2c(c1)OCCO2
Given back: 91.7

Asked: For CCOC(=O)N1CCN(C(=O)CSc2nc3c(cnn3-c3ccccc3)c(=O)[nH]2)CC1 , what is its reported viability?
Given back: 99

Asked: Look up viability for this compound: Cc1nc2ccccc2n1-c1ccccc1
Given back: 96.4

Asked: Suppose we examine the compound CC(=O)c1cccc(NC(=O)C2CCCN2S(=O)(=O)c2cccc3cccnc23)c1 (stereo not drawn) ; what viability value has been reported?
Given back: 82.7

Asked: What value of viability has been reported for the following compound? O=C(CCCc1ccccc1)NCCN1CCOCC1
Given back: 97.9

Asked: Consider the compound shown here: CCOC(=O)CSc1nccc(N(C)C)c1C#N What is its recorded viability?
Given back: 100

Asked: // query viability value for entry CC(=NCCc1ccccc1)C1=C(O)CSC1=O
Given back: 96.3

Asked: Need viability of CCn1c(=O)c2cc(C(=O)N3CCOCC3)sc2c2ccccc21 , thanks.
Given back: 87.3

====

assay: RAM signaling pathway blockade in yeast – S. cerevisiae, Pdr1DBD-CYC8 efflux-inhibited sensitized strain, primary screen (AID 1298);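 also: 0% = DMSO untreated cells without growth and 100% = 10 µM 1-NA-PP1 full growth; higher means more yeast growth rescued from 5-FOA killing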; details: S. cerevisiae cbk1-as DSE1-URA3 strain, 5-FOA growth OD615, 2 d; at 50 µM; stronger effect = higher value
parameter: RAM network inhibition (%)
Please reply with the bare figure in % and do not write the unit itself.

Asked: Consider the molecule COCc1cc(C)nc2sc(C(=O)Nc3nccs3)c(N)c12 and give its measured RAM network inhibition.
Given back: 2.07

Asked: Item under review: CS(=O)(=O)N1CCN(Cc2ccccc2C(F)(F)F)CC1 . Reported RAM network inhibition?
Given back: 6.47

Asked: I would be grateful if you could share the reported RAM network inhibition for Cc1nc2ccc(N)cc2s1 .
Given back: 1.25

Asked: Any idea what RAM network inhibition was measured for O=C1N2CN(C(c3ccccc3)c3ccccc3)CN=C2SC1(CO)CO ?
Given back: 1.39

Asked: Data request, read-out RAM network inhibition, for CCOc1ccc(C(=O)Nn2cnnc2)cc1
Given back: 1.85

Asked: Suppose we examine the molecule O=C(NCC1CCCO1)c1ccc2c(=O)n(CCc3ccccc3)c(=O)[nH]c2c1 (stereo not given) ; what RAM network inhibition value has been reported?
Given back: 3.8

Asked: Would you mind telling me what RAM network inhibition value was observed for COCCNC(=O)c1cc2c(=O)n(C)c3ccccc3c2n1C ?
Given back: 0.36

Asked: Recorded RAM network inhibition of O=C(Nc1ccc(Oc2ccc(NC(=O)C3CCCO3)cc2)cc1)C1CCCO1 (stereo not given) , please.
Given back: -0.11

Asked: Entry under review: CCOC(=O)c1ccccc1NC(=O)CC1SC(=NC)N(C)C1=O (stereo not given) . Reported RAM network inhibition?
Given back: 4.34

Asked: Returns the measured RAM network inhibition for the input molecule. Input: COc1ccc(NC2c3ccccc3C(=O)N2Cc2ccco2)cc1OC (stereo not given)
Given back: 3.72

Asked: Fill blank: measured RAM network inhibition of the molecule Cc1ccc(-n2ncc3c(NCc4ccco4)ncnc32)c(C)c1 is ____.
Given back: -0.57

Asked: Which RAM network inhibition reading was recorded for the molecule O=C(c1cccc(C(=O)N2CCc3ccccc32)n1)N1CCc2ccccc21 ?
Given back: 6.13

Asked: Which value of RAM network inhibition has been reported for O=C(CN1CCOc2ccccc21)NCc1ccc(F)cc1 in the records?
Given back: -0.84

Asked: Record request: RAM network inhibition value, item CC(C)(C)n1nc2c(c1NC(=O)Cc1ccc(F)cc1)CSC2
Given back: 5.41

Asked: Entry under review: COc1ccc(C)cc1NC(=O)c1cnc2scc(C)n2c1=O . Reported RAM network inhibition?
Given back: 3.95

Asked: I am curious: what RAM network inhibition value has been reported for CN1C(=O)CC(N2CCN(c3ncccn3)CC2)C1=O (stereo not given) ?
Given back: 5.07

Asked: Requested field: RAM network inhibition. Item: COc1ccc2c(C)cc(=O)oc2c1C
Given back: 5.35

Asked: Any idea what RAM network inhibition was measured for COc1ccc(O)c(C(=O)c2cnn(C(=O)c3cc(C)oc3C)c2)c1 ?
Given back: 1.5

Asked: Using the record for CCOc1ccc2[nH]c(C)c(CN(C)C)c(=O)c2c1 , report its RAM network inhibition.
Given back: 4.03

Asked: // query RAM network inhibition value for entry N#CC1=C(N)Oc2c(sc3ccccc23)C1c1ccco1 (stereo not given)
Given back: -0.62

Asked: What value of RAM network inhibition has been reported for the following molecule? O=C(Cc1cccs1)Nc1nnc(-c2ccncc2)s1
Given back: 0.83

Asked: Which value of RAM network inhibition has been reported for C=CCN1C(=Nc2ccccc2)SC/C1=C\C(=O)OC in the records?
Given back: 6.77

Asked: Record request: RAM network inhibition value, item O=c1oc(-c2cccs2)nc2sc3c(c12)CCCCC3
Given back: 4.13

Asked: What does the data say about its RAM network inhibition? Entry: O=C(CCS(=O)(=O)c1ccccc1)Nc1nc(-c2ccccn2)cs1
Given back: 3.99

Asked: Quick check: RAM network inhibition of Cc1ccc(C(=O)CSC2=NC(N)=C(C#N)C3(CCCCC3)C2C(N)=O)cc1 (stereo not given) ?
Given back: 9.3

====

assay: growth suppression of PTEN-deleted HCT116, pilot screen, cell-based, HCT116 clonal line, CellTiter-Glo (AID 824); settings: 60 h, at 10 µM;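 also: 0% = 20 µM Hyamine control and 100% = vehicle cell control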
Inconclusive results are not listed. The source made the active and inactive calls.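 The calls were made as follows: active = viability at or below 27.92% in each of two runs, the all-compound median minus 4 SD; inconclusive = no clear call, values can overlap the other calls; inactive = the rest.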
In this exercise, the only acceptable responses are 1 = active, 0 = inactive

Asked: Any idea what this test logged for CCOC(=O)C(C(=O)OCC)c1cc(Br)c2noc3c2c1C(=O)c1ccccc1-3 ?
Given back: 1

Asked: Write down the call the test reported for this compound. Item: C(=N\c1nc2ccccc2n1Cc1ccccc1)/c1cccs1
Given back: 0

Asked: Outcome? O=C(Cn1ncc2c1-c1ccccc1OC2)N(Cc1ccco1)C1CCCCC1
Given back: 0

Asked: I'd appreciate the recorded outcome for COc1cccc(N2CCN(C(=O)C3CCCN(S(=O)(=O)c4cnc[nH]4)C3)CC2)c1 (stereo not drawn) from this test.
Given back: 0

Asked: Can you look up the reported call for O=C(CN(Cc1ccccc1)S(=O)(=O)c1ccccc1)NC1CC1 for me?
Given back: 0

Asked: Please share the test call associated with Cc1ccc(C(C)C)c(OCC(=O)N2CCOCC2)c1 .
Given back: 0

Asked: Record lookup: outcome of this test for CCCC(=O)OCCNC(=O)c1cc2ccccc2oc1=O ?
Given back: 0

Asked: What call does the record list for O=C(CCCCCn1c(=O)[nH]c2ccsc2c1=O)N1CCN(C2CCCCC2)CC1 ?
Given back: 0

Asked: How did this test come out for O=C(CCN1CCN(c2ccccc2)CC1)Nc1ccc2c(c1)OCO2 ?
Given back: 0

Asked: Hi team, can someone confirm the assay call for O=c1[nH]c2ccccc2n1Cc1ccc(F)cc1 ?
Given back: 0

Asked: Query: recorded result category for COc1ccc2c(=O)c(N3C(=O)c4ccccc4C3=O)c(C)oc2c1 in this test
Given back: 0

Asked: How did this test come out for Cn1nc(-c2ccc(Cl)cc2)c2cc(C(=O)N3CCOCC3)sc21 ?
Given back: 0

Asked: # outcome recorded in this test, key = CCOC(=O)C1=C(C)NC(=O)NC1c1c(O)ccc2ccccc12 (stereo not drawn)
Given back: 0

Asked: Hey, what did the test say about COc1cccc(CNC(=O)c2ccc(NC(=O)C3CCCO3)cc2)c1 (stereo not drawn) ?
Given back: 0

Asked: Record lookup: outcome of this test for OC(CN1C2=NCCCN2c2ccccc21)c1ccc(Cl)cc1 (stereo not drawn) ?
Given back: 0

Asked: Outcome logged for COc1ccccc1N(CC(=O)Nc1ccc2c(c1)OCO2)S(=O)(=O)c1ccccc1 in this assay:
Given back: 0

Asked: Tell me the recorded outcome of this test for Cc1cc(NS(=O)(=O)c2ccccc2)c(C)c(Cl)c1O .
Given back: 1

Asked: // param item: CN(C)c1cc(-c2ccccc2)nc(N)n1 ; yields the recorded call
Given back: 0

Asked: Which result was noted for this compound in the test: CC(=O)Nc1nc(CC(=O)c2ccccc2)cs1
Given back: 0

Asked: # lookup: test call for CCOC(=O)CNC(=O)c1c2c(nc3ccccc13)CCCC2
Given back: 0

Asked: Test call for this compound, please: Cc1c(NC(=O)C(C)N2C(=O)C3C4C=CC(C4)C3C2=O)c(=O)n(-c2ccccc2)n1C (stereo not drawn)
Given back: 0

Asked: I would be grateful if you could indicate the recorded call for CCN(CC)CCCN1C(=O)C(O)=C(C(=O)c2ccc(C)o2)C1c1cccs1 (stereo not drawn) .
Given back: 0

Asked: Could you check what this test reported for CCC1CCCCN1C(=O)c1cc2cc(Br)ccc2oc1=O (stereo not drawn) ?
Given back: 0
